Target: T1, UbcH5B (human, UniProt P62837 1-147)
T1 construct: UbcH5B, human Ub-conjugating enzyme (E2), untagged; also called UbcH5B WT
Experiment: SPR; GST-cIAP1R coupled to a CM-5 chip, Biacore T200, 25 °C; analytes diluted in 25 mM Tris-HCl pH 7.6, 150 mM NaCl, 0.1 mg/ml BSA, 1 mM DTT, 0.005% Tween 20; GST alone subtracted; steady-state affinity analysis
Conditions: both partners purified
Result Type: Kd (µM)
Just the number in µM, nothing appended.

Assign Kd to the following record: GST-cIAP1R (cIAP1 RING domain, residues 556-C, with GST) (domain or fragment, human, UniProt Q13490 556-618, looked up, pGEX4T1 with a TEV site after GST; the tag is not cleaved in this form; source: E. coli BL21 (DE3) Gold; not shown: GST, N-terminal, kept) LSLEEQLRRLQEERTCKVCMDKEVSVVFIPCGHLVVCQECAPSLRKCPICRGIIKGTVRTFLS
223

meta.source: paper PMC6349121
